biological target: human TLR7 (Homo sapiens, UniProt Q9NYK1); assay: HEK293-Blue-hTLR-7 cells assay (SEAP reporter, R848 stimulation); conditions: HEK293-Blue-hTLR7 cells, R848, 20 hrs; read-out: HEK/hTLR7 IC50
Sequence (Q9NYK1 27-1049): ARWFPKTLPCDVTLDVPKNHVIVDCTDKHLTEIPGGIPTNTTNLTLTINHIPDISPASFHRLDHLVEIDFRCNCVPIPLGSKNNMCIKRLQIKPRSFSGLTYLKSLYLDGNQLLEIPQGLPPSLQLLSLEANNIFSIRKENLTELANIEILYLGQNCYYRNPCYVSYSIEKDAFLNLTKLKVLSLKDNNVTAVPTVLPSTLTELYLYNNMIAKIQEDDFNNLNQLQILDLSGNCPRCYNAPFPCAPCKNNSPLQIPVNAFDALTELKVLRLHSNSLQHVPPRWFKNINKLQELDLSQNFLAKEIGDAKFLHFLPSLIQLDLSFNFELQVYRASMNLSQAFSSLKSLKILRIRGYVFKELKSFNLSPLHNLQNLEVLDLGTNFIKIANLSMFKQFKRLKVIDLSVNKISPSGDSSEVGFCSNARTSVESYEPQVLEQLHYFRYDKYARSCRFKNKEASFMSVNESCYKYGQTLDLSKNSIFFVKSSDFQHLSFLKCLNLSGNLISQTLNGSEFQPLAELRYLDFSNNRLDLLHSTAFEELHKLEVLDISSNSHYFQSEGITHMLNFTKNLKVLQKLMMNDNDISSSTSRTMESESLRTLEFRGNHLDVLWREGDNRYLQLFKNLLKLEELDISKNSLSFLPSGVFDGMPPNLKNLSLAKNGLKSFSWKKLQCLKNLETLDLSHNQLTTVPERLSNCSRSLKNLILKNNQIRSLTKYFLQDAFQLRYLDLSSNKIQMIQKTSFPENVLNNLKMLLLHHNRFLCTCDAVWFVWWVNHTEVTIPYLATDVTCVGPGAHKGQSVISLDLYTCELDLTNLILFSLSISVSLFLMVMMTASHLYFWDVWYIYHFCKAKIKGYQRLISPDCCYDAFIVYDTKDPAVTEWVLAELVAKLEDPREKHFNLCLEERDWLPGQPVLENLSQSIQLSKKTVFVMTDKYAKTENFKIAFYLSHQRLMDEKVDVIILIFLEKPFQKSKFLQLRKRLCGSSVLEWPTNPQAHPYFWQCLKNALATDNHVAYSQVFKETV
Listing: pIC50 of selected compounds
FYI, pIC50 means -log10 of a concentration in mol per litre.

Input: State the recorded pIC50 for this entry: C[C@@H]1CN(c2ccc(C#N)c3ncccc23)C[C@H](CN2CC(c3cccc(N4CCNCC4)c3)C2)O1
Output: 7.80

Input: State the recorded pIC50 for this entry: C[C@@H]1CN(c2ccc(C#N)c3ncccc23)C[C@H](CN2CCN(c3cccc(N4CCC(N)CC4)n3)CC2)O1
Output: 7.55

Input: State the recorded pIC50 for this entry: CO[C@H]1CN(c2nccc(N3CCN(C[C@H]4CN(c5ccc(C#N)c6ncccc56)C[C@@H](C)O4)CC3)n2)CC1N (stereo in doubt)
Output: 8.10

Input: State the recorded pIC50 for this entry: C[C@@H]1CN(c2ccc(C#N)c3ncccc23)C[C@H](CN2CCN(c3cc(N4CCNCC4)ncn3)CC2)O1
Output: 7.96

Input: State the recorded pIC50 for this entry: Cc1cc(N2CCN(C[C@H]3CN(c4ccc(C#N)c5ncccc45)C[C@@H](C)O3)CC2)nc(N2C[C@H](N)C[C@@H](F)C2)n1 (relative stereo)
Output: 7.60

Input: State the recorded pIC50 for this entry: CO[C@@H]1CN(c2nc(C)cc(N3CCN(C[C@H]4CN(c5ccc(C#N)c6ncccc56)C[C@@H](C)O4)CC3)n2)C[C@@H]1N
Output: 8.22

Input: State the recorded pIC50 for this entry: C[C@@H]1CN(c2ccc(C#N)c3ncccc23)C[C@H](CN2CCN(c3ccnc(N4CCNCC4)n3)CC2)O1
Output: 8.15

Input: State the recorded pIC50 for this entry: Cc1cc(N2CCN(C[C@H]3CN(c4ccc(C#N)c5ncccc45)C[C@@H](C)O3)CC2)nc(N2C[C@@H](N)C[C@@H](F)C2)n1
Output: 7.59

Input: State the recorded pIC50 for this entry: Cc1cc(N2CCN(C[C@H]3CN(c4ccc(C#N)c5ncccc45)C[C@@H](C)O3)CC2)nc(N2CCOCC(N)C2)n1 (stereo partly drawn)
Output: 7.25

Input: State the recorded pIC50 for this entry: CO[C@H]1CN(c2nc(C)cc(N3CCN(C[C@H]4CN(c5ccc(C#N)c6nccnc56)C[C@@H](C)O4)CC3)n2)C[C@@H]1N
Output: 8.05

Input: State the recorded pIC50 for this entry: C[C@@H]1CN(c2ccc(C#N)c3ncccc23)C[C@H](CN2CCN(c3nccc(N4CCNCC4)n3)CC2)O1
Output: 8.22

Input: State the recorded pIC50 for this entry: C[C@@H]1CN(c2ccc(C#N)n3ncc(F)c23)C[C@H](CN2CCN(c3ccc(C4CNCCO4)cc3F)CC2)O1 (stereo in doubt)
Output: 7.55

Input: State the recorded pIC50 for this entry: C[C@@H]1CN(c2ccc(C#N)c3ncccc23)C[C@H](CN2CCN(c3ccnc(N4CCN[C@@H](CO)C4)n3)CC2)O1
Output: 7.80

Input: State the recorded pIC50 for this entry: C[C@@H]1CN(c2ccc(C#N)n3ncc(F)c23)C[C@H](CN2CCN(c3ccc(N4CC5(CCN5)C4)nc3)CC2)O1
Output: 7.52

Input: State the recorded pIC50 for this entry: [2H]c1ccc2c(N3C[C@H](CN4CCN(c5nc(C)cc(N6CC(N)C6)n5)CC4)O[C@H](C)C3)ccc(C#N)c2n1
Output: 8.15

Input: State the recorded pIC50 for this entry: C[C@@H]1CN(c2ccc(C#N)n3nccc23)C[C@H](CN2CC(c3ccc(N4CC(C)(N)C4)nc3)C2)O1
Output: 8.10

Input: State the recorded pIC50 for this entry: C[C@@H]1CN(c2cc(=O)n(C)c3ncccc23)C[C@H](CN2CC(c3ccc(N4CC5(CNCCO5)C4)cc3)C2)O1
Output: 7.54

Input: State the recorded pIC50 for this entry: [2H]c1ccc2c(N3C[C@H](CN4CCN(c5ccc(N6CC(C)(N)C6)nc5C)CC4)O[C@H](C)C3)ccc(C#N)c2n1
Output: 7.72

// provenance: patent US20210395239A1
